As shown below, each of these sequences has a reported protease stability score value.
# Measurement notes: protease stability score; higher = more stable; yeast display proteolysis, trypsin and chymotrypsin;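 also: relative to predicted unfolded state with 0 unfolded-like and 1 meaning tenfold more protease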
Recorded metric: protease stability score

| Residues | Observed value |
| --- | --- |
| DEEQELLLRIFERWLEFLLTGDEDTMHRLFDPDVKSRIGDFNHHGRELVLEAHQWFLKHARLKEFIRRDIHAINGRINMKGDVRVDVNGQEWEDHIRIHLVVVNGKMREIHIEEK | 1.38 |
| REEEREAKEWLERLIRDIITGDEDKMTNLIDPNVRILINGKHIHGWELYFKIWIDHVERFPNMRVDYHVKSITFFNGRIIMYYEERIHINGKEIRVDVHIQALKVNGRWILESVHNE | 1.54 |
| DEVKKETDEFSEKFRHALLTGDEEEIEKMADPHVKVDIDGREHHGREEWSEIYREWIHKRGVRIKHIRDHEVRIINGRAIIDQRVHGIVNGQETTLEMHFTTTKIDGRWILTEVFVK | 1.42 |
| EEEEWLVKIAIRILIETFRTGDFHLWEELADPNTRLRIGNFEFHGREEVLHSLIEMRIHSVHIEDHKVIDGRLHVDSRLLGTFNGQHINRETRLISLKINGVWFIKSFEFV | 0.648 |
| SEDEEHSRIFVQLFQRAVETGDEDRMLQLMDPDARVHIGDKTYHGMFQFVRWLHDQLKRFKNIRIEWRLTEIDVFENHIIIKGELRLKAEGVDHIHNVIIYVNKINGRWIVHHMEIR | 1.52 |
| SREDELREEFLRRILEVLRTGDFDEWKKYLDPDTRNDINGVDWVGRETAAHELERMYRHIRIKDTKVHDVRVQGDKVHIDVRVLIEFDGRERILETHIVVEKVDGRWHLKHVRFN | 1.62 |
| SELDELANFANELFWELHKTGDEEIFNHYADPHMRYEIDGRDIHGMEVFTKHLRRIKNLTLHSIHVHDEKSQGEKFIFDGNVVGRVNGKEFDTRVRLELTVINGRVHSIILRRH | 1.41 |
| SETEEITERWLRLALEALRTGDFEFISRLADPHVRSEYNGVEFIGREEMVRFEEERLERLGATPSDLITRDVEFQGNKVIIHQEMEMRVGDKRHTNETTIFSHKFDGRWILHSIKFH | 0.984 |
| SHEDKLNEEVARLIIHAWKTGNERLMLKLLDPHTRFEQGDKEMVGREHLLEMLRHRLEELGVDHIDFKDYKIDVVDGVLNIYLRIEIEVGDKHIDMIIKVIVLKFDGRWHVHEVRVEER | 1.5 |
| SEDEHAVRELIELESHAWRTGDEDTLRRLIDPHTRVEQGDFIFHGREEWEKFVKRLLRHMRIEDIFIHHVRVQGDKVDTDSRLLVLFEGRREHVEVDLIILKIDGRWVISQIIIK | 1.39 |
| HEDEEEMKKFIHRWENDLRTGDEESHRRLADPNTLLVVNGRRVHGMEAVLHIVREMRLHEVYIDDIRIINGRAHTELTVKGEIDGVKHWSHTHIHVTKVNGQWHIDTIRIL | 0.663 |

* * *

# Measurement notes: protease stability score; higher = more stable; yeast display proteolysis, trypsin and chymotrypsin;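 also: relative to predicted unfolded state with 0 unfolded-like and 1 meaning tenfold more protease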
Recorded metric: protease stability score

| Residues | Observed value |
| --- | --- |
| THEEELSREATRFMLHVLMTGDPTLTEEQADPRTRVVVGDKELHGMEHLSKWYEDHWRQYPNVRIEFKRTEVQGDKMFLDGRLKVNGRETHVFILAFKINGQWVLEEIRFK | 1.59 |
| DEDEHIERHLFEELIELLRTGDFRRLFELIDPHARFVVDGRDHHGMEYAMRERLRRLEEAGVKHIRIRRKDVINGRLHIHSSVNVNGVEQEERIIIEKVNGRWTITEIVID | 1.26 |
| SEEDEERKHFLELWRESFETGDEDSSRDMADPNTRIHIGDKEQVGWEDVMHEMVKIKNARYHIVVHHVEIQGDKLTMDGEVRIDVNGRLIQIRTIIIARKYDGRWIVTHVHIH | 1.3 |
| RDEESHLKHLAERIMKSWETGDEHTLRHLFDPNTRSHVEVGDKRWSFIGMENFDRWFRELHEEMGANHTTVHDTKIQGNKLTMDTRLLVGDKEIRTRLIFHIVDGRITHIIIKLE | 1.31 |
| SEDDEELEEAARRTLKIIRTGDEDLYTRLADPHDKMQIDGVETHGMEEISRWLKEHRDRFKGLKMIERRIRVTSIDGQVRVHIDTELRVDGVTQRVELNWIASKVDGRWRLERVEFIIR | 0.745 |
| DEVEELAKRLLEELIHALETGDFDHNRHLLDPNVRIVIGEKDHVGWREVTKALRHMGIDHIHVRIHRIEVQGDKVHTESSVEMDINGKKLEFDTWLILRKVNGRWLFHSIEIR | 1.44 |
| DEDEKTAEETLNEFIRSLLTGDEDNLKHLLDPNTRFHINGQDIHGWEVYYEMFRQWRVTHVRLEVKDFRIFNGRLDADGHLRMHGTINGKNRDTSSILHMHSVKVNGRWVLTEVRVE | 1.78 |
| DEEERHTREMADWFITLFLTGNEEIMMELADPNMRLEHISEDEHYEYHGMHDVSRWLHELLLKFKNIRVRLRRIRIQGDYVIIHQDLNYNGKRVHVIIIVHIFDGRIKSLRFEFR | 1.67 |
| DEEHRKLKKFVRESMEDHRTGDEDRRNELLDPNVRIEIGDKTFHGREDDKKWLEEFGVDHVEIRIRHIDIIGNKAIIDSELRIFVNGRILEFDTIIYAEKYDGRWVHHSVQVR | 0.077 |
| SHVEELSHEVTRWVDIALQTGDERVIDEYLDPNARIDVGDKHFIGREEMSEFYSEFSRRVKNLKLSRYHKKDERIIGNKVILHGKLNVNINGRSHEIDTEIVSMKVNGRWLVEKEIVN | 0.302 |
| DEEDELFEIFIREWRRLVKTGNFKEIVDNADPHAKSVINGKELVGREHMSRLMLELGIKYYDERSWDVYGDKVVIHGREKFNGRESESIVFAEKVNGRWVLTKVEIR | 1.45 |
| DDWEEILREMIERWLKIFLTGDEEQLQRLADPDTRLNFNGREHHGMETLRRWRHRYEEEMRVRRINVKHEEFQGEKIRMDTELHTEVNGVKIITRTELIFIIINGRIKEVEIRVK | 0.853 |
| SKDEKTLSHFIKFLEDVEKTGNFEDFYELMDPDAKLVVNGVEHHGRDEFTRFIKEFMDRVDHIHYTDVHHIILQGDKVIIDAKVRGVWDGVERELRVKIIIVKINGRWYLKSFEEE | 1.87 |
| DERHDDRNHAIEAFKFMLDTGDWRVYSRNIDPNMRLEIGDKTFHGREELEHHITQIDHHHTHTLTIEHIDRVGDFVDIHITLSVTVIFDGRNETKTFHVDIHLVKIDGKWLIHKESVK | 0.545 |
| DETKHHHDRLFEEEAKAIATGDWEKLKELLDPHVRFEVGNKEIHGMETVLEEIERDLKRLGVTKQEVRIVIDKVDIQGEKIVSDFTLRLHFDGVTIEHKVHVIEVKIDGRWLIQSIRIE | 1.53 |
| SRKDEHTHHLLHLFWEIFMTGDEERWTQLLDPNMRTEIDGKDLHGREDAIRFMIERLRQLGFDHMRLHHLENQGEKAHIDGTLEVGDKLVRVHFSTKIVNGRIKELTIKFH | 1.02 |
| DEDHEQSHEMLELFVHSWKTGDWEILIKLLDPHARSIVNGREVHGREEISRYFKEELKKIPNMRIEVKIRSVEIQGDKVDNDVEIIIKYGDKLIRRKVHLLDLKVDGRWFLTDVTIE | 1.96 |
| EEEEKHAKHVAKEFLRLLFTGNEHRLKEYLDPNVRLDVNGQEFHGWEEIVKWLREIRFEDSRLHRIRVVGDKIDIDGELDGVINGRRVDRRSIIILFVVDGRYTEVTYRNI | 1.26 |
| TEDEENVIEATRIFNRVLETGDEDSLKRLLDPNVRVNFDGVELIGWEDFLKFVFEWRKKAGITQVKSEPRDMDLQGNKVHNETILHINGRTFETRLVHEKVNGRWIARSIRFS | 1.21 |
| SEEDHIMEELARIFWKLMTTGDFDTLEHLMDPHTRLEVNGRIFVGREASEELWRFYKNVRTEIEDVKAQGDKNHIKGHQKFNGREKTVHIHLTIVDGRLKSMSIKEH | 2.23 |
| SEEEELVREHIKRVIHSYETGDWKSFLELFDPNVRLRVGDKELHGRELFIHWLVRLIELLGINHFELILHDVELQGNKAHSDIHSNLTVGDKTEHRKVHLFNLKVNGRWRTQSEHIE | 1.36 |
| DEDEERKHKILEIWLHSLETGDETKLEEMVDPNVRIEFNGREHHGWEHFLEFVRVFGAKVLHLEDEREDGNKIIHHIVVHVNGRRHTLIVIAHKVNGRWVISSIRFE | 1.45 |
